- Test target: α-chymotrypsin (Bos taurus, UniProt P00766)
- Protocol: Chymotrypsin inhibitory activity of peptides (AAPFpNA hydrolysis; IC50, Ki, residual activity)
- Type: biochemical
- Experimental context: peptide 1000 μM
- Description: The inhibition constants of various synthetic active peptide inhibitors (molecular scaffolds) against seine proteases were measured. […] Experiments for α-chymotrypsin and bovine trypsin inhibition were measured in 20 mM CaCl2, 50 mM Tris-HCl buffer (pH 7.8), and that for porcine elastase inhibition was measured in 50 mM Tris-HCl buffer (pH 8.0). The concentration of the peptide was measured using optical density (OD) at 280 nm. […]
Bridge positions count the residues as written; N and C are the ends. Peptide text beside a SMILES is read from it.
Response key: y means Residual activity of chymotrypsin >= 0.7%; n means Residual activity of chymotrypsin < 0.7%.

// inclusive: Residual activity of chymotrypsin at least 0.7%? input: CC[C@H](C)[C@@H]1NC(=O)[C@H](CO)NC(=O)[C@H](Cc2ccc(O)cc2)NC(=O)[C@H]([C@@H](C)O)NC(=O)[C@H](C)NC(=O)[C@H](C)NC(=O)CNC(=O)[C@@H](N)CSSC[C@@H](C(=O)N[C@@H](Cc2ccccc2)C(=O)O)NC(=O)[C@H](CCCCN)NC(=O)[C@H](C)NC(=O)[C@@H]2CCCN2C1=O [CH31] (H-CGAATYSIPAKCF-OH; disulfide 1-12; N-terminus and C-terminus assumed)
n

// inclusive: Residual activity of chymotrypsin at least 0.7%? input: CC[C@H](C)[C@@H]1NC(=O)[C@H](CO)NC(=O)[C@H](Cc2ccc(O)cc2)NC(=O)[C@H]([C@@H](C)O)NC(=O)[C@@H](NC(=O)[C@@H](N)Cc2ccccc2)CSSC[C@@H](C(=O)N[C@@H](CCCNC(=N)N)C(=O)O)NC(=O)[C@H](CCC(N)=O)NC(=O)[C@@H]2CCCN2C(=O)[C@@H]2CCCN2C1=O [CH35] (H-FCTYSIPPQCR-OH; disulfide 2-10; C-terminus assumed)
y

// inclusive: Residual activity of chymotrypsin at least 0.7%? input: CC[C@H](C)[C@@H]1NC(=O)[C@H](CO)NC(=O)[C@H](Cc2ccccc2)NC(=O)[C@H]([C@@H](C)O)NC(=O)CNC(=O)[C@H](Cc2ccccc2)NC(=O)CNC(=O)[C@@H](N)CSSC[C@@H](C(=O)N[C@@H](Cc2ccc(O)cc2)C(=O)NCC(=O)O)NC(=O)[C@H](CCC(N)=O)NC(=O)[C@@H]2CCCN2C(=O)[C@@H]2CCCN2C1=O [CH7] (H-CGFGTFSIPPQCYG-OH; disulfide 1-12; N-terminus and C-terminus assumed)
y

// inclusive: Residual activity of chymotrypsin at least 0.7%? input: CC[C@H](C)[C@@H]1NC(=O)[C@H](CO)NC(=O)[C@H](Cc2ccccc2)NC(=O)[C@H]([C@@H](C)O)NC(=O)[C@@H](NC(=O)[C@@H](N)CC(C)C)CSSC[C@@H](C(=O)N[C@@H](Cc2ccc(O)cc2)C(=O)NCC(=O)O)NC(=O)[C@H](CCC(N)=O)NC(=O)[C@@H]2CCCN2C(=O)[C@@H]2CCCN2C1=O [CH1] (H-LCTFSIPPQCYG-OH; disulfide 2-10; N-terminus and C-terminus assumed)
n

Let's switch to this compound now.
// inclusive: Residual activity of chymotrypsin at least 0.7%? input: CC[C@H](C)[C@@H]1NC(=O)[C@H](CO)NC(=O)[C@H](Cc2ccc(O)cc2)NC(=O)[C@H]([C@@H](C)O)NC(=O)[C@@H](NC(=O)[C@@H](N)CO)CSSC[C@@H](C(=O)N[C@@H](Cc2ccc(O)cc2)C(=O)NCC(=O)O)NC(=O)[C@H](CCC(N)=O)NC(=O)[C@@H]2CCCN2C(=O)[C@@H]2CCCN2C1=O [CH4] (H-SCTYSIPPQCYG-OH; disulfide 2-10; N-terminus and C-terminus assumed)
n
